Each recorded value in this set is attributed to ChEMBL document CHEMBL1145545.

studySystem: Adenosine receptor A2a (Homo sapiens)
Sequence (P29274 whole entry): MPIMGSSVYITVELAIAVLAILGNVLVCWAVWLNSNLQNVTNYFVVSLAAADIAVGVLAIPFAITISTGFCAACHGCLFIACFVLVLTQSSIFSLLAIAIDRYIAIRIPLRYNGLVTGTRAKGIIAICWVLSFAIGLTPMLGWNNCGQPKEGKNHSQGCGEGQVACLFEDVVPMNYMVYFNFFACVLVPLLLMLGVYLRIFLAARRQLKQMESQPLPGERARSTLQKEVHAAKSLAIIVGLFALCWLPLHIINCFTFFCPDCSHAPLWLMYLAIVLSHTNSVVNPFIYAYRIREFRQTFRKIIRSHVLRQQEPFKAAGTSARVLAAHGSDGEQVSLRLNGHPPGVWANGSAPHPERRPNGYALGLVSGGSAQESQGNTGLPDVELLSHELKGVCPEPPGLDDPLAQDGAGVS
procedureText: Displacement of [3H]ZM-241385 from human recombinant adenosine A2A receptor expressed in HEK293 cells
Format: cell-based
pKi: −log10 of the molar value.

>  <chemicalStructure>
CCn1c(=O)n(CC(C)C)c(=O)c2[nH]c(-c3cnn(Cc4ccc(C(F)(F)F)nc4)c3)nc21

>  <relationOperator>
=

>  <pKi>
5.27

$$$$
>  <chemicalStructure>
CCCn1c(=O)c2[nH]c(-c3cnn(Cc4noc(-c5ccc(C(F)(F)F)cc5)n4)c3)nc2n(CC)c1=O

>  <relationOperator>
<

>  <pKi>
5.30

$$$$
>  <chemicalStructure>
CCCCn1c(=O)c2[nH]c(-c3cnn(Cc4cccc(F)c4)c3)nc2n(C)c1=O

>  <relationOperator>
=

>  <pKi>
6.66

$$$$
>  <chemicalStructure>
CCn1c(=O)c2[nH]c(-c3cnn(Cc4cccc(F)c4)c3)nc2n(C)c1=O

>  <relationOperator>
=

>  <pKi>
6.64

$$$$
>  <chemicalStructure>
CCCn1c(=O)c2[nH]c(-c3cnn(Cc4cc(-c5ccc(Cl)cc5)on4)c3)nc2n(CC)c1=O

>  <relationOperator>
=

>  <pKi>
6.11

$$$$
>  <chemicalStructure>
CCn1c(=O)n(CC2CC2)c(=O)c2[nH]c(-c3cn[nH]c3)nc21

>  <relationOperator>
=

>  <pKi>
6.63

$$$$
>  <chemicalStructure>
CCCn1c(=O)c2[nH]c(-c3cnn(Cc4noc(-c5ccc(Cl)cc5)n4)c3)nc2n(CC)c1=O

>  <relationOperator>
<

>  <pKi>
5.30

$$$$
>  <chemicalStructure>
CCCn1c(=O)c2[nH]c(-c3cnn(Cc4ccccc4)c3)nc2n(CC)c1=O

>  <relationOperator>
=

>  <pKi>
6.58

$$$$
>  <chemicalStructure>
CCCn1c(=O)c2[nH]c(-c3cnn(Cc4cc(-c5ccc(C(F)(F)F)cc5)on4)c3)nc2n(CC)c1=O

>  <relationOperator>
=

>  <pKi>
5.63

$$$$
>  <chemicalStructure>
CCCn1c(=O)c2[nH]c(-c3cnn(Cc4cccc(C(F)(F)F)c4)c3)nc2n(C)c1=O

>  <relationOperator>
=

>  <pKi>
6.35

$$$$
>  <chemicalStructure>
CCn1c(=O)n(CC2CC2)c(=O)c2[nH]c(-c3cnn(Cc4ccccc4)c3)nc21

>  <relationOperator>
=

>  <pKi>
6.74

$$$$
>  <chemicalStructure>
CC(C)Cn1c(=O)c2[nH]c(-c3cnn(Cc4ccccc4)c3)nc2n(C)c1=O

>  <relationOperator>
=

>  <pKi>
6.39

$$$$
>  <chemicalStructure>
CCCn1c(=O)c2[nH]c(-c3cnn(Cc4ccc(C)nc4)c3)nc2n(CC)c1=O

>  <relationOperator>
=

>  <pKi>
6.17

$$$$
>  <chemicalStructure>
CCn1c(=O)n(CC2CC2)c(=O)c2[nH]c(-c3cnn(Cc4ccc(C(F)(F)F)nc4)c3)nc21

>  <relationOperator>
=

>  <pKi>
5.64

$$$$
>  <chemicalStructure>
CCCn1c(=O)c2[nH]c(-c3cnn(Cc4ccccc4)c3)nc2n(C)c1=O

>  <relationOperator>
=

>  <pKi>
6.90

$$$$
>  <chemicalStructure>
CCn1c(=O)n(CC(C)C)c(=O)c2[nH]c(-c3cnn(Cc4cccc(F)c4)c3)nc21

>  <relationOperator>
=

>  <pKi>
5.41

$$$$
>  <chemicalStructure>
CCn1c(=O)c2[nH]c(-c3cnn(Cc4cccc(C(F)(F)F)c4)c3)nc2n(C)c1=O

>  <relationOperator>
=

>  <pKi>
6.63

$$$$
>  <chemicalStructure>
CCCCn1c(=O)c2[nH]c(-c3cnn(Cc4ccccc4)c3)nc2n(C)c1=O

>  <relationOperator>
=

>  <pKi>
6.61

$$$$
>  <chemicalStructure>
CCCn1c(=O)c2[nH]c(-c3cnn(Cc4ccc(C(F)(F)F)nc4)c3)nc2n(CC)c1=O

>  <relationOperator>
=

>  <pKi>
5.65

$$$$

----------
studySystem: Adenosine receptor A2b (Homo sapiens, UniProt P29275)
Sequence (P29275 whole entry): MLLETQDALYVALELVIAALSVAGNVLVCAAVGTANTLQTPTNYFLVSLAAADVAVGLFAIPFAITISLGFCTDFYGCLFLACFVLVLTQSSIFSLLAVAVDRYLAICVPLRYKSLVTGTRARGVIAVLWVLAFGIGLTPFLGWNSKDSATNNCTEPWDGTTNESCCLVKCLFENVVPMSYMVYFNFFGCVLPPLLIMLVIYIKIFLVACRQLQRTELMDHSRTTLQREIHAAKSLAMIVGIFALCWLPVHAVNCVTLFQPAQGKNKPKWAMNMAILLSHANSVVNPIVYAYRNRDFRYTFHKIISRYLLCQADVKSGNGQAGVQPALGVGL
procedureText: Displacement of [3H]ZM-241385 from human recombinant adenosine A2B receptor expressed in HEK293 cells
pKi: −log10 of the molar value.

>  <chemicalStructure>
CCCCn1c(=O)c2[nH]c(-c3cnn(Cc4ccccc4)c3)nc2n(C)c1=O

>  <studySystem>
Adenosine receptor A2b (Homo sapiens, UniProt P29275)

>  <pKi>
7.52

$$$$
>  <chemicalStructure>
CCCn1c(=O)c2[nH]c(-c3cnn(Cc4cccnc4)c3)nc2n(CC)c1=O

>  <studySystem>
Adenosine receptor A2b (Homo sapiens, UniProt P29275)

>  <pKi>
7.66

$$$$
>  <chemicalStructure>
CCCn1c(=O)c2[nH]c(-c3cnn(Cc4cccc(C(F)(F)F)c4)c3)nc2n(CC)c1=O

>  <studySystem>
Adenosine receptor A2b (Homo sapiens, UniProt P29275)

>  <pKi>
7.66

$$$$
>  <chemicalStructure>
CCCn1c(=O)c2[nH]c(-c3cnn(Cc4cc(-c5ccc(Cl)cc5)on4)c3)nc2n(CC)c1=O

>  <studySystem>
Adenosine receptor A2b (Homo sapiens, UniProt P29275)

>  <pKi>
7.38

$$$$
>  <chemicalStructure>
CCCn1c(=O)c2[nH]c(-c3cnn(Cc4ccccc4)c3)nc2n(C)c1=O

>  <studySystem>
Adenosine receptor A2b (Homo sapiens, UniProt P29275)

>  <pKi>
7.72

$$$$
>  <chemicalStructure>
CCCn1c(=O)c2[nH]c(-c3cnn(Cc4cc(-c5ccc(C(F)(F)F)cc5)on4)c3)nc2n(CC)c1=O

>  <studySystem>
Adenosine receptor A2b (Homo sapiens, UniProt P29275)

>  <pKi>
7.60

$$$$
>  <chemicalStructure>
CCn1c(=O)n(CC(C)C)c(=O)c2[nH]c(-c3cn[nH]c3)nc21

>  <studySystem>
Adenosine receptor A2b (Homo sapiens, UniProt P29275)

>  <pKi>
6.85

$$$$
>  <chemicalStructure>
CC(C)Cn1c(=O)c2[nH]c(-c3cnn(Cc4cccc(C(F)(F)F)c4)c3)nc2n(C)c1=O

>  <studySystem>
Adenosine receptor A2b (Homo sapiens, UniProt P29275)

>  <pKi>
6.70

$$$$
>  <chemicalStructure>
CCCn1c(=O)c2[nH]c(-c3cnn(Cc4ccccc4)c3)nc2n(CC)c1=O

>  <studySystem>
Adenosine receptor A2b (Homo sapiens, UniProt P29275)

>  <pKi>
7.51

$$$$

----------
Listing of recorded Ki by entry.
studySystem: Adenosine receptor A2b (Homo sapiens, UniProt P29275)
procedureText: Displacement of [3H]ZM-241385 from human recombinant adenosine A2B receptor expressed in HEK293 cells
metric: Ki (nM)

>  <chemicalStructure>
CCn1c(=O)n(CC2CC2)c(=O)c2[nH]c(-c3cn[nH]c3)nc21

>  <studySystem>
Adenosine receptor A2b (Homo sapiens, UniProt P29275)

>  <readoutUnits>
nM

>  <quantitativeResult>
38

$$$$
>  <chemicalStructure>
Cn1c(=O)n(CC2CC2)c(=O)c2[nH]c(-c3cnn(Cc4cccc(C(F)(F)F)c4)c3)nc21

>  <studySystem>
Adenosine receptor A2b (Homo sapiens, UniProt P29275)

>  <readoutUnits>
nM

>  <quantitativeResult>
21

$$$$
>  <chemicalStructure>
CCn1c(=O)c2[nH]c(-c3cnn(Cc4ccccc4)c3)nc2n(C)c1=O

>  <studySystem>
Adenosine receptor A2b (Homo sapiens, UniProt P29275)

>  <readoutUnits>
nM

>  <quantitativeResult>
2

$$$$

----------
Species: Homo sapiens
procedureText: Selectivity for human recombinant adenosine A2B receptor over human recombinant adenosine A3 receptor

>  <chemicalStructure>
CCCn1c(=O)c2[nH]c(-c3cnn(Cc4ccc(C(F)(F)F)nc4)c3)nc2n(CC)c1=O

>  <relationOperator>
=

>  <Ratio Ki>
24

$$$$
>  <chemicalStructure>
CCn1c(=O)c2nc(-c3cnn(Cc4cccc(F)c4)c3)[nH]c2n(CC)c1=O

>  <relationOperator>
=

>  <Ratio Ki>
91

$$$$
>  <chemicalStructure>
Cn1c(=O)n(CC2CC2)c(=O)c2[nH]c(-c3cnn(Cc4cccc(C(F)(F)F)c4)c3)nc21

>  <relationOperator>
=

>  <Ratio Ki>
7

$$$$
>  <chemicalStructure>
CCn1c(=O)n(CC(C)C)c(=O)c2[nH]c(-c3cnn(Cc4cccc(F)c4)c3)nc21

>  <relationOperator>
=

>  <Ratio Ki>
10

$$$$
>  <chemicalStructure>
CCn1c(=O)n(CC(C)C)c(=O)c2[nH]c(-c3cnn(Cc4cccc(C(F)(F)F)c4)c3)nc21

>  <relationOperator>
=

>  <Ratio Ki>
23

$$$$
>  <chemicalStructure>
CCn1c(=O)c2[nH]c(-c3cnn(Cc4ccccc4)c3)nc2n(C)c1=O

>  <relationOperator>
=

>  <Ratio Ki>
46

$$$$
>  <chemicalStructure>
CCn1c(=O)c2[nH]c(-c3cnn(Cc4cccc(F)c4)c3)nc2n(C)c1=O

>  <relationOperator>
=

>  <Ratio Ki>
47

$$$$
>  <chemicalStructure>
Cn1c(=O)n(CC2CC2)c(=O)c2[nH]c(-c3cnn(Cc4ccccc4)c3)nc21

>  <relationOperator>
=

>  <Ratio Ki>
8

$$$$
>  <chemicalStructure>
CCCn1c(=O)c2[nH]c(-c3cnn(Cc4nc(-c5ccc(Cl)cc5)no4)c3)nc2n(CC)c1=O

>  <relationOperator>
=

>  <Ratio Ki>
25

$$$$
>  <chemicalStructure>
CCn1c(=O)n(CC(C)C)c(=O)c2[nH]c(-c3cnn(Cc4ccc(C(F)(F)F)nc4)c3)nc21

>  <relationOperator>
=

>  <Ratio Ki>
17

$$$$
>  <chemicalStructure>
Cn1c(=O)c2nc(-c3cnn(Cc4cccc(C(F)(F)F)c4)c3)[nH]c2n(C)c1=O

>  <relationOperator>
=

>  <Ratio Ki>
100

$$$$
>  <chemicalStructure>
CCCn1c(=O)c2[nH]c(-c3cnn(Cc4ccc(C)nc4)c3)nc2n(CC)c1=O

>  <relationOperator>
=

>  <Ratio Ki>
6

$$$$
>  <chemicalStructure>
CCCn1c(=O)c2[nH]c(-c3cnn(Cc4noc(-c5ccc(C(F)(F)F)cc5)n4)c3)nc2n(CC)c1=O

>  <relationOperator>
>

>  <Ratio Ki>
375

$$$$
>  <chemicalStructure>
CCCn1c(=O)c2[nH]c(-c3cnn(Cc4cccc(C(F)(F)F)c4)c3)nc2n(C)c1=O

>  <relationOperator>
=

>  <Ratio Ki>
29

$$$$
>  <chemicalStructure>
CCn1c(=O)n(CC2CC2)c(=O)c2[nH]c(-c3cnn(Cc4ccc(C(F)(F)F)nc4)c3)nc21

>  <relationOperator>
=

>  <Ratio Ki>
25

$$$$
>  <chemicalStructure>
CCCn1c(=O)c2[nH]c(-c3cnn(Cc4cc(-c5ccc(C(F)(F)F)cc5)on4)c3)nc2n(CC)c1=O

>  <relationOperator>
=

>  <Ratio Ki>
152

$$$$
>  <chemicalStructure>
CCCn1c(=O)c2[nH]c(-c3cnn(Cc4cccc(C(F)(F)F)c4)c3)nc2n(CCC)c1=O

>  <relationOperator>
=

>  <Ratio Ki>
10

$$$$
>  <chemicalStructure>
CCCn1c(=O)c2[nH]c(-c3cnn(Cc4cccc(F)c4)c3)nc2n(C)c1=O

>  <relationOperator>
=

>  <Ratio Ki>
7

$$$$
